The values you see were collected from the supplement of paper PMC10307832.

System: NCI-H838
Experiment: relative viability (nuclei count vs DMSO), 5 days (fraction); higher = more cells survive
Conditions: first compound 0.04 µM
Listed here: items and their measured relative viability.

Here is how some compounds turned out for relative viability.
Clc1ccc(Nc2nnc(Cc3ccncc3)c3ccccc23)cc1 [Vatalanib] + CCNC(=O)c1noc(-c2cc(C(C)C)c(O)cc2O)c1-c1ccc(CN2CCOCC2)cc1 [Luminespib] (partner 0.01 µM) = 0.326
C[C@@H]1CN(CC(=O)Nc2ccc3c(c2)Cc2cccc(-c4cc(=O)cc(N5CCOCC5)o4)c2S3)C[C@H](C)O1 + COc1cc2c(Oc3ccc(NC(=O)C4(C(=O)Nc5ccc(F)cc5)CC4)cc3F)ccnc2cc1OCCCN1CCOCC1 [Foretinib] (partner 0.25 µM) = 0.871
C[C@@H]1CN(CC(=O)Nc2ccc3c(c2)Cc2cccc(-c4cc(=O)cc(N5CCOCC5)o4)c2S3)C[C@H](C)O1 + CC(=O)c1c(C)c2cnc(Nc3ccc(N4CCNCC4)cn3)nc2n(C2CCCC2)c1=O [Palbociclib] (partner 0.5 µM) = 0.233
C[C@@H]1CN(CC(=O)Nc2ccc3c(c2)Cc2cccc(-c4cc(=O)cc(N5CCOCC5)o4)c2S3)C[C@H](C)O1 + CC(=O)Nc1cccc(-n2c(=O)n(C3CC3)c(=O)c3c(Nc4ccc(I)cc4F)n(C)c(=O)c(C)c32)c1 [Trametinib] (partner 0.02 µM) = 0.688
COc1cc(N2CCC(C(N)=O)CC2)ccc1Nc1nc(N)c(Cl)c(Nc2ccccc2S(=O)(=O)C(C)C)n1 [HG-5-88-01] + C[C@@H](Oc1cc(-c2cnn(C3CCNCC3)c2)cnc1N)c1c(Cl)ccc(F)c1Cl [Crizotinib] (partner 1 µM) = 0.799
Clc1ccc(Nc2nnc(Cc3ccncc3)c3ccccc23)cc1 [Vatalanib] + COc1cccc2cc(-c3nc([C@H]4CC[C@H](C(=O)O)CC4)n4ncnc(N)c34)[nH]c12 [OSI-027] (partner 0.5 µM) = 0.428

Turning to the following compound.
Ask | Please supply the value of reported relative viability for the item Clc1ccc(Nc2nnc(Cc3ccncc3)c3ccccc23)cc1 [Vatalanib] + CS(=O)(=O)CCNCc1ccc(-c2ccc3ncnc(Nc4ccc(OCc5cccc(F)c5)c(Cl)c4)c3c2)o1 [Lapatinib] (partner 2 µM)
Reply | 1.06
